I'd be grateful if you could share measured pIC50 for these entries.
Target: human D2R/β-arrestin (Homo sapiens (Human))
Sequence (P14416 whole entry): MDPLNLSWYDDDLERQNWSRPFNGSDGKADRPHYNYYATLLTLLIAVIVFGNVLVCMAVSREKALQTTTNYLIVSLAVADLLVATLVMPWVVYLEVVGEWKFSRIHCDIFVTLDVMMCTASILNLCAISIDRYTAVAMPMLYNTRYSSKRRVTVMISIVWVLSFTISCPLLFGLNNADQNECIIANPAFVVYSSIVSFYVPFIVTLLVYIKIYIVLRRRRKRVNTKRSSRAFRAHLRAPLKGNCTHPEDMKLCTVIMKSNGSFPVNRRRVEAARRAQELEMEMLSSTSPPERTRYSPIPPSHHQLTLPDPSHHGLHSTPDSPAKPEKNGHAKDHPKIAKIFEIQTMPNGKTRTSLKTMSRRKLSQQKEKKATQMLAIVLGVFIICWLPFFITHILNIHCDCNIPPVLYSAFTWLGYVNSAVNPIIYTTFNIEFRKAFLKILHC
Assay: cell-based
Conditions: β-arrestin Antagonist, CHO-K1 cell line expressing human D2R/β-arrestin; quinpirole used as agonist
pIC50: −log10 of the molar value.

Ask: Looking for the measured pIC50 of COc1cccc(C(NC(=O)C2CCN(CCOc3ccccc3Cl)CC2)c2ccccn2)c1 (stereo not shown) , can you help?
Reply: 6.00 to 7.00

Ask: Likewise for O=C(NC(c1ccc(Cl)cc1)c1ccncc1F)C1CCN(CCOc2ccccc2F)CC1 (stereo not shown) [Compound 91] ?
Reply: 6.00 to 7.00

Ask: Likewise for O=C(NC(c1ccccn1)c1ccccc1C(F)(F)F)C1CCN(CCOc2ccccc2)CC1 (stereo not shown) ?
Reply: 4.52 to 5.00

Ask: Likewise for O=C(NC(c1ccc(F)cc1)c1ccccc1F)C1CCN(CCOc2ccccc2)CC1 (stereo not shown) ?
Reply: 6.00 to 7.00
